Test system: SF-539
Experiment: NCI tumour cell line growth inhibition, 48 h
Calls of active or inactive are those of the source. Cut-off read from the data, not from the text of the source: active = GI50 up to about 1.1 µM and inactive = higher.
Possible outcomes: active, inactive

1. C/C(=C\c1csc(C)n1)[C@@H]1C[C@@H]2O[C@@H]2CCC[C@H](C)[C@H](O)[C@@H](C)C(=O)C(C)(C)[C@@H](O)CC(=O)O1.C/C(=C\c1csc(C)n1)[C@@H]1C[C@@H]2O[C@]2(C)CCC[C@H](C)[C@H](O)[C@@H](C)C(=O)C(C)(C)[C@@H](O)CC(=O)O1 : active
2. Cn1c(=O)nc2n(-c3ccc(F)c(F)c3)c3ccccc3nc-2c1=O : inactive
3. CC1(C)OC2OC(COC(=O)c3ccc(C#N)cc3)C3OC(C)(C)OC3C2O1 (configuration not stated) : inactive
4. CC1=NN(C(=O)Cc2ccccc2)C(=O)/C1=C\c1ccccc1O : inactive
5. Cc1c(F)c(N)c2c(=O)cc(-c3ccc(N)c(F)c3)oc2c1F [AMINOFLAVONE] : inactive
6. CCCCCCCCCCCNC=O : inactive
7. Cc1nc2ccc(Cl)cc2c2c1CCO2 : inactive
8. CCOC(=O)C1=NN(c2ccc([N+](=O)[O-])cc2)[C@@]2(C)C[C@]3(c4ccccc4)N(c4ccc([N+](=O)[O-])cc4)N=C(C(=O)OCC)N3c3ccccc3N12 : inactive
9. CCNc1cnc2c(n1)c(=O)n(C)c(=O)n2C : inactive
10. CC(=O)NC(CCCCNC(=O)NCCCl)C(=O)NCc1ccccc1 (configuration not stated) : inactive
11. CC(=O)NC1C(OCc2ccccc2)OC(CO)C(O)C1OCC(=O)NC(C(=O)NC(CCC(=O)NCCCCCC(=O)Nc1ccc2c(c1)CN1C(=O)c3ccccc3C1=N2)C(N)=O)C(C)C (configuration not stated) : inactive
12. CNC1C(O)C(NC)C2OC3(O)C(=O)CC(C)OC3OC2C1O (configuration not stated) : inactive
13. Cc1nc(N(C(C)C)C(C)C)c(C(C)C)o1 : inactive
14. COC(=O)Cc1c([C@H]2[C@H](CC(=O)OC)c3ccccc3N2S(=O)(=O)c2ccc(C)cc2)[nH]c2ccccc12 : inactive
15. OC(c1cc2ccccc2o1)c1cc2ccccc2s1 (configuration not stated) : inactive
16. CN(C)CCCN1c2ccc(O)cc2Sc2ccc(Cl)cc21 [7-HYDROXYCHLORPROMAZINE] : inactive
17. Oc1nc2cc(Cl)ccc2nc1/C(=N\Nc1ccccc1)C(O)c1ccc(Cl)c(Cl)c1 (configuration not stated) : inactive
18. Cc1cc(-c2nc3ccc(F)cc3s2)ccc1NC(=O)C(N)CCCCN (configuration not stated) : inactive
19. CCOC(=O)CNC(=O)C(CSC(=O)N(O)c1ccc(Cl)cc1)NC(=O)CCC(N)C(=O)OCC (configuration not stated) : inactive
20. CC1=CC(C)C(O)C(C)/C=C\C(O)C/C=C(/C)C(=O)CC(O)C(C)\C=C/C=C\C=C/C(=O)NC2=C(O)C(=O)c3c(cc(C)c(O)c3C1=O)C2=O (configuration not stated) : inactive
21. CC(C)(C)OC(=O)c1ccc(NCC2=CC(=O)C=CC2=O)cc1 : inactive
22. CC1=NC=C(O)c2ccccc2O1 : inactive
23. O=C1O/C(=C(\Br)c2cccc3ccccc23)c2ccccc21 : inactive
24. O=C1c2ccccc2N2OC3(N4CCOCC4)CCCC3C12c1ccccc1 (configuration not stated) : inactive
25. CC1(C)OC(=O)C(C)(C)C(=O)O1 : inactive
26. CC1=C(N2CC2)C(=O)C(C)=C(N2CC2)C1=O : active
27. CCOC(=O)C(C)c1nc2cc(C(F)(F)F)ccc2[nH]c1=O (configuration not stated) : inactive
28. CCOC(=O)C(CCSC)(CCSC)C(=O)OCC : inactive
29. CN(C)CCn1c(=O)c2ccc(NCCNCCO)c3c(=O)c4cc(O)ccc4n(c1=O)c23 : active
30. Cn1cc(NC(=O)c2cc(NC(=O)CCCCCCCCCCC(=O)Nc3cc(C(=O)Nc4cc(C(=O)NCCC(=N)N)n(C)c4)n(C)c3)cn2C)cc1C(=O)NCCC(=N)N : inactive
31. Cc1n[nH]c(=O)n1N1C(=O)c2ccccc2C1=O : inactive
32. COC(=O)C1CCc2nnc(-c3ccccc3)n21 (configuration not stated) : inactive
33. CC1=C(O)C(=O)C2=C(C1=O)[C@@H]([C@@H](C)C/C=C/C(C)(C)O)CC[C@@H]2C : inactive
34. CCC(c1ccccc1)c1cc(C(C)(C)C)cc(C(C)(C)C)c1O (configuration not stated) : inactive
35. CCN(CC)CCn1ccc(=O)c2cc3c(=O)ccn(CCN(CC)CC)c3c(C)c21 : inactive
36. CN/N=C(\C(=O)Nc1ccc(C(F)(F)F)cc1[N+](=O)[O-])C(c1cnc2ccc([N+](=O)[O-])cc2n1)[N+](=O)[O-] (configuration not stated) : inactive
37. CN1CCCc2nc3ccccc3n2C1 : inactive
